Reference for the values: ChEMBL document CHEMBL1150477

Target: Type-2 angiotensin II receptor (Homo sapiens, UniProt P50052)
Sequence (P50052 whole entry): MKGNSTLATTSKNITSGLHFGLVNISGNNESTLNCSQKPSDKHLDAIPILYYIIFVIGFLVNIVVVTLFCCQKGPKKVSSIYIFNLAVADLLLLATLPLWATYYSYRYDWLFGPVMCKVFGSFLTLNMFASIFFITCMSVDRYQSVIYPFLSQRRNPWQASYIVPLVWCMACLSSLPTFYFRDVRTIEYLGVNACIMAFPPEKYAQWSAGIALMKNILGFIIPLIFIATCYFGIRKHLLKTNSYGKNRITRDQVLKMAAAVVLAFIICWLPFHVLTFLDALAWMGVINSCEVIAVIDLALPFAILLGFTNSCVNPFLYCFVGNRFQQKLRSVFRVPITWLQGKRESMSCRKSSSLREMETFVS
observation type: IC50

Study these solved cases before continuing.
>  <given smiles>
CCCc1nc2ccc(NC(=O)NC(C)C)cc2c(=O)n1Cc1ccc(-c2ccccc2S(=O)(=O)NC(=O)c2ccc(CC)cc2F)cc1F

>  <system name>
Type-2 angiotensin II receptor (Homo sapiens, UniProt P50052)

>  <observation type>
IC50

>  <val>
4.4 nM

$$$$
>  <given smiles>
Cc1nc2ccc(NC(=O)NC(C)C)cc2c(=O)n1Cc1ccc(-c2ccccc2S(=O)(=O)NC(=O)OCCC(C)C)cc1F

>  <system name>
Type-2 angiotensin II receptor (Homo sapiens, UniProt P50052)

>  <observation type>
IC50

>  <val>
11 nM

$$$$
>  <given smiles>
CCCCc1nc2ccc(NC(=O)N(C)C(C)C)cc2c(=O)n1Cc1ccc(-c2ccccc2S(=O)(=O)NC(=O)OCCC(C)C)cc1F

>  <system name>
Type-2 angiotensin II receptor (Homo sapiens, UniProt P50052)

>  <observation type>
IC50

>  <val>
8 nM

$$$$

Let's switch to this molecule now.
Query block: Identify measured IC50 associated with CCc1nc2ccc(NC(=O)N(C)C(C)C)cc2c(=O)n1Cc1ccc(-c2ccccc2S(=O)(=O)NC(=O)OCC=C(C)C)cc1F
Result block: 9.3 nM

* * *

Target: Angiotensin II receptor (AT-1) type-1 (Rattus norvegicus, UniProt P29089+P25095)
Test: […] inhibitory concentration against Angiotensin II receptor, type 1 of rat adrenal membrane
Known IC50 of a selection of compounds
API: value field is a number in nM; no unit string.

>  <given smiles>
CCc1nc2ccc(NC(=O)N(C)C(C)C)cc2c(=O)n1Cc1ccc(-c2ccccc2S(=O)(=O)NC(=O)OCC=C(C)C)cc1F

>  <val>
0.39

$$$$
>  <given smiles>
CCCc1nc2ccc(NC(=O)NC(C)C)cc2c(=O)n1Cc1ccc(-c2ccccc2S(=O)(=O)NC(=O)c2ccc(CC)cc2F)cc1F

>  <val>
0.11

$$$$
>  <given smiles>
Cc1nc2ccc(NC(=O)NC(C)C)cc2c(=O)n1Cc1ccc(-c2ccccc2S(=O)(=O)NC(=O)OCCC(C)C)cc1F

>  <val>
0.5

$$$$
>  <given smiles>
CCc1ccc(C(=O)NS(=O)(=O)c2ccccc2-c2ccc(Cn3c(CC)nc4ccc(NC(=O)N(C)C(C)C)cc4c3=O)c(F)c2)cc1

>  <val>
0.14

$$$$
>  <given smiles>
CCNC(=O)Nc1ccc2nc(CC)n(Cc3ccc(-c4ccccc4S(=O)(=O)NC(=O)OCCC4CC4)cc3F)c(=O)c2c1

>  <val>
0.64

$$$$
>  <given smiles>
CCCCOC(=O)NS(=O)(=O)c1ccccc1-c1ccc(Cn2c(CCCC)nc3ccc(NC(=O)N(C)C(C)C)cc3c2=O)c(F)c1

>  <val>
0.25

$$$$

Let's switch to this compound now.
Query block: Identify measured IC50 associated with CCc1ccc(C(=O)NS(=O)(=O)c2ccccc2-c2ccc(Cn3c(CC)nc4ccc(NC(=O)NC(C)C)cc4c3=O)c(F)c2)c(F)c1
Result block: 0.14
